Cited source for all entries: PubChem BioAssay

Record form. Attribute: composite z-score. Fill in for each entry.
- Experimental System: E3 ubiquitin-protein ligase XIAP (Homo sapiens) (UniProt P98170)
- Sequence (P98170 whole entry, looked up): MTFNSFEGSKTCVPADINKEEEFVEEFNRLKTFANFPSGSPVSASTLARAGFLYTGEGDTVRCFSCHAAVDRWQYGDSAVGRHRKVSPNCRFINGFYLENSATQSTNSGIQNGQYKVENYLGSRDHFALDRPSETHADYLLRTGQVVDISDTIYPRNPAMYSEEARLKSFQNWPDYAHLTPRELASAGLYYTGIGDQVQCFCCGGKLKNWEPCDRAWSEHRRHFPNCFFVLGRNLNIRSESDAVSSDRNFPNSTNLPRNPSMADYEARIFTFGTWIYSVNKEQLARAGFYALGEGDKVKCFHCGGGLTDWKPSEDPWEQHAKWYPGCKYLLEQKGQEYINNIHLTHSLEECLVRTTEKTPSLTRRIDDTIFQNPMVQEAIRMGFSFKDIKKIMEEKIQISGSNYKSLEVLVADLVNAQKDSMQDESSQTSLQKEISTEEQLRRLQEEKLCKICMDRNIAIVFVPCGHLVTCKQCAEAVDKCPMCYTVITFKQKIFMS
- Test Details: XIAP binders, primary screen, biophysical, small-molecule microarray, fluorescence 635 nm (AID 1181);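 further: score merges 667 nm emission and signal to noise over triplicate slides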
- Condition Set: small-molecule microarray binding, higher = more signal
Answer with the value's number alone.

Request: What value of composite z-score has been recorded for this entry: CC(CCN1CCc2nc(-c3ccccc3)c(-c3ccccc3)cc2C1)=NOC(C)CN1CCCCc2nc(C)c(C)cc21 (stereo unspecified)
Result: -0.0651

Request: What value of composite z-score has been recorded for this entry: CC(=O)C[C@H](O)[C@@H](NC(=O)OC(C)(C)C)C(C)C
Result: -0.195

Request: What value of composite z-score has been recorded for this entry: CN(C)CCCNC(=O)[C@@H]1c2ccccc2C(=O)N(Cc2cc(F)cc(C(F)(F)F)c2)[C@H]1c1ccc(CO)cc1
Result: -0.0172

Request: What value of composite z-score has been recorded for this entry: CC(=O)O[C@H]1C2=C(C(=O)[C@@H]3O[C@@H]31)[C@H]1C(C)O[C@@H]2[C@@]23C(=O)[C@@H]4O[C@@H]4[C@@H](O)C2=CO[C@H](C)[C@@H]13 (stereo partly specified)
Result: -0.0454

Request: What value of composite z-score has been recorded for this entry: CO[C@@H]1COC(=O)[C@@H]2CCCN2C(=O)[C@@H](C)COC(=O)[C@H](COCc2ccccc2)NC(=O)CC=C[C@H]1C
Result: -0.153

Request: What value of composite z-score has been recorded for this entry: C=CC[C@@H]1C=C[C@H](ON=Cc2ccc(C(=O)N3[C@H](c4ccc(C)cc4)[C@@H](C)CC[C@H]3C(=O)OC)cc2)[C@@H](CO)O1
Result: -0.16

---

Record form. Attribute: composite z-score. Fill in for each entry.
- Experimental System: Epidermal growth factor receptor (Homo sapiens) (UniProt P00533)
- Sequence (P00533 whole entry, looked up): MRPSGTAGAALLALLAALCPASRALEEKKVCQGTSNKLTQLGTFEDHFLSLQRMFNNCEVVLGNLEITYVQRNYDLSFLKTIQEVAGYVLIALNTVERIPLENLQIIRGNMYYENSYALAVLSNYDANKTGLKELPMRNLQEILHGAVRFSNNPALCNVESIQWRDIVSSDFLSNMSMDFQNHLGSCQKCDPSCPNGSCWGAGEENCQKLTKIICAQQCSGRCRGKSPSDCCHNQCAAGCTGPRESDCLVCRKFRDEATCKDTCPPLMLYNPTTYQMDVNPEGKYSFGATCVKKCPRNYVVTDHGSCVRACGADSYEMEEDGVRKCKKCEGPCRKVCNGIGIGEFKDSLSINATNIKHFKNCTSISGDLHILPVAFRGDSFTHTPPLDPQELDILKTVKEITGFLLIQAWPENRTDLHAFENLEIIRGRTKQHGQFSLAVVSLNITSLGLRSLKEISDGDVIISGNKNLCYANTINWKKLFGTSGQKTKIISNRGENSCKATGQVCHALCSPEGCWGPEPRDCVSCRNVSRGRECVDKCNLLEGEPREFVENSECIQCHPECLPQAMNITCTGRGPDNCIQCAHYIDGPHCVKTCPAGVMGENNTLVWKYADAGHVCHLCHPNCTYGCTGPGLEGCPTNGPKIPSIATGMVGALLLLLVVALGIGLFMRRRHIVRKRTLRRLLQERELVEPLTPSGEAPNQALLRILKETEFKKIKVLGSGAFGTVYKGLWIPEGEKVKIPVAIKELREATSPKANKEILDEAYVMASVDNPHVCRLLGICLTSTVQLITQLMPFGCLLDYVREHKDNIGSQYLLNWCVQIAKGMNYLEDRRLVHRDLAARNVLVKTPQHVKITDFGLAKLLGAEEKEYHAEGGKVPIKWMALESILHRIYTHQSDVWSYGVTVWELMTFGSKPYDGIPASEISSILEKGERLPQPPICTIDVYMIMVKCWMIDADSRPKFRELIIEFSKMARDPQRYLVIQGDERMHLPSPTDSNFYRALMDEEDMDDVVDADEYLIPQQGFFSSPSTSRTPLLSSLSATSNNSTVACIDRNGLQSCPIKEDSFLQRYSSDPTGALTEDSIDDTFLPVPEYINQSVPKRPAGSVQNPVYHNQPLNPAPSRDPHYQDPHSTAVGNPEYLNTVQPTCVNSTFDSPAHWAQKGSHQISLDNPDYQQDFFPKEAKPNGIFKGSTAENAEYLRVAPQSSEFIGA
- Test Details: EGFR binders on small-molecule microarrays, primary screen, biochemical, small-molecule microarray, 635 nm fluorescence (AID 1104);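 further: score merges 667 nm emission intensity with spot signal to noise over triplicate slides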
- Condition Set: EGFR binding, higher = more signal
Answer with the value's number alone.

Request: What value of composite z-score has been recorded for this entry: CCOC(=O)C1=CC[C@H]2C(=O)N(CC)C(=O)[C@@H]12
Result: 0.0746

Request: What value of composite z-score has been recorded for this entry: O=C(NN=C1C[C@@H](O)[C@@H](O)[C@@H]2[C@@H]3C(=O)N(c4cccc(Oc5ccccc5)c4)C(=O)[C@@H]3CC[C@@H]12)OCc1ccccc1
Result: 0.152

Request: What value of composite z-score has been recorded for this entry: CCOC(=O)CCN1C(=O)[C@H]2[C@H]3[C@H](O)[C@H](O)CC(=O)[C@H]3CC[C@H]2C1=O
Result: 0.4

Request: What value of composite z-score has been recorded for this entry: CC(CCN1CCc2nc(-c3ccccc3)c(-c3ccccc3)cc2C1)=NOC[C@@H](C)[C@H](OCc1ccccc1)C(C)C
Result: -1.15

---

- Experimental System: Focal adhesion kinase 1 (Homo sapiens) (UniProt Q05397)
- Sequence (Q05397 whole entry, looked up): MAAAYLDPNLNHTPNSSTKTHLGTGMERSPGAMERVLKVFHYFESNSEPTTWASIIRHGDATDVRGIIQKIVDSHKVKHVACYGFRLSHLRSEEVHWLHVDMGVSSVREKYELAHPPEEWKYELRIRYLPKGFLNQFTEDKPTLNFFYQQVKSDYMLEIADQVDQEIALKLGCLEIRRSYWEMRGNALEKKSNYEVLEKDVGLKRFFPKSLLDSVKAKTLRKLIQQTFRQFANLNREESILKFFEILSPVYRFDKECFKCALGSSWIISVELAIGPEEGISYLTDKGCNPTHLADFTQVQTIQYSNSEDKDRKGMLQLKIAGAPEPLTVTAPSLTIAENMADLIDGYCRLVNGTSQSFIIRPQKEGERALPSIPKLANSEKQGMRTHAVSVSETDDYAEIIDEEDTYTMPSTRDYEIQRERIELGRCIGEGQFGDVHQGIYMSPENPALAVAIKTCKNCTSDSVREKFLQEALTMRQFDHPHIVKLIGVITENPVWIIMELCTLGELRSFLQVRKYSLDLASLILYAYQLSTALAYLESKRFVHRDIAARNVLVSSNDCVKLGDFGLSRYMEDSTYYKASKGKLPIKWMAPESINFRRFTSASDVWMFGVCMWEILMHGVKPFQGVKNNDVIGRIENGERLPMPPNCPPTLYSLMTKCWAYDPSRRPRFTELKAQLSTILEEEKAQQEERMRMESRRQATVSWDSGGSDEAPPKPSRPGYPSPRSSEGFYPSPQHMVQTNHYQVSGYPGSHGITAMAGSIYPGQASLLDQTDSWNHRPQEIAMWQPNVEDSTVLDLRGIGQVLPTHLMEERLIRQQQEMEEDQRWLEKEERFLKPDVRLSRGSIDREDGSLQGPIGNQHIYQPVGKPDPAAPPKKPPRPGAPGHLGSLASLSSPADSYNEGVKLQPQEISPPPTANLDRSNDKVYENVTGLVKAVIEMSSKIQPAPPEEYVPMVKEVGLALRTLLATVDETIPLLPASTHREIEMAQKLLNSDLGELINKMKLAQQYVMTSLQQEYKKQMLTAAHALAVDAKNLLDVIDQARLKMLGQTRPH
- Test Details: small-molecule microarray binders of FAK, primary screen, biochemical, 635/667 nm fluorescence, BSA, DTT (AID 1130);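 further: composite of spot emission at 667 nm and signal to noise over triplicate slides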
- Condition Set: PTK2 binding, 635 nm fluorescence, higher = more signal
Label scheme for composite z-score: lower than 0.4 is no, 0.4 and above is yes.

Request: Threshold query (composite z-score >= 0.4) on CO[C@H]1COC(=O)CC=C[C@H](C)[C@@H](NS(=O)(=O)c2ccc(C)cc2)COC(=O)CC=C[C@@H]1C
Result: no

Request: Threshold query (composite z-score >= 0.4) on COC(=O)[C@@H]1CC[C@H](C)[C@@H](c2ccc(C)cc2)N1C(=O)c1ccc(C=NOC(C)CN2CCCCc3nc(C)c(C)cc32)cc1 (some centres undefined)
Result: no

Request: Threshold query (composite z-score >= 0.4) on COc1ccc(OC[C@H]2Cc3c(-c4ccccc4)nc4c(c3CO2)CN(CCOc2ccccc2)CC4)cc1
Result: no

Request: Threshold query (composite z-score >= 0.4) on CC(CCC(=O)OC[C@H]1O[C@H](C#Cc2ccccc2)C=C[C@@H]1Oc1ccc(C)cc1)=NO[C@@H](C)c1cn([C@H](CO)Cc2ccccc2)nn1
Result: no

Request: Threshold query (composite z-score >= 0.4) on O=C1O[C@@H](c2ccccc2)[C@@H](c2ccccc2)N2[C@@H](c3ccc(OCCO)cc3)[C@]3(C(=O)Nc4ccccc43)[C@@H](C(=O)N3CCN(c4ncccn4)CC3)[C@H]12
Result: yes

Request: Threshold query (composite z-score >= 0.4) on [N-]=[N+]=Nc1ccccc1C[C@@]1(C(N)=O)N=C(c2ccc(OCCCO)cc2)O[C@@H]1c1ccccc1
Result: yes

Request: Threshold query (composite z-score >= 0.4) on CCOC(=O)[C@H](CC(C)C)NC(=O)CCC1CC(OC(=O)NCc2cccc3ccccc23)CC2(CCCC(COC(=O)NCCN3CCOCC3)O2)O1 (some centres undefined)
Result: yes

Request: Threshold query (composite z-score >= 0.4) on C#CCCCON=C1C[C@@H](O)[C@@H](O)[C@@H]2[C@@H]3C(=O)N(c4cccc(Oc5ccccc5)c4)C(=O)[C@@H]3CC[C@@H]12
Result: no

---

- Tested on: Noggin (protein binding on small-molecule microarray)
- Test Details: Noggin binders on small-molecule microarray, primary screen, biochemical, 635/667 nm fluorescence (AID 1095);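 further: score merges 667 nm feature fluorescence with signal to noise over triplicate slides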
- Condition Set: 635 nm fluorescence, higher = more signal
Reported Property: composite z-score
Answer with the value's number alone.

Request: What value of composite z-score has been recorded for this entry: COCCOC(=O)N1C(=O)[C@@]2(c3cc(C#CCNC(N)=O)ccc31)[C@H](c1ccc(O)cc1)N1[C@H](c3ccccc3)[C@H](c3ccccc3)OC(=O)[C@H]1[C@@H]2C(=O)N1CCCCCCC1
Result: 1.28

Request: What value of composite z-score has been recorded for this entry: CCOC(=O)[C@H](CC(C)C)NC(=O)CCC1CC(OC(=O)NCCc2ccc(F)cc2)CC2(CCCC(COC(=O)NCc3ccccc3)O2)O1 (stereo not given in full)
Result: 1.46

Request: What value of composite z-score has been recorded for this entry: NC(=O)NCC#Cc1ccc2c(c1)[C@]1(C(=O)N2)[C@H](c2ccc(O)cc2)N2[C@H](c3ccccc3)[C@H](c3ccccc3)OC(=O)[C@H]2[C@@H]1C(=O)N1CCCCCCC1
Result: 1.55

Request: What value of composite z-score has been recorded for this entry: COCCOC(=O)N1C(=O)[C@@]2(c3cc(C#CCNC(N)=O)ccc31)[C@H](c1ccccc1OCCO)N1[C@H](c3ccccc3)[C@H](c3ccccc3)OC(=O)[C@H]1[C@@H]2C(=O)N1CCN(c2ncccn2)CC1
Result: 0.43

Request: What value of composite z-score has been recorded for this entry: COC(=O)C1(C)C=C2C(=C(c3ccccc3)C(=O)C2C)CN1 (stereo not given)
Result: -1.44

---

- Test Details: RPMI8226 myeloma cell viability, profiling panel, resazurin fluorescence, basal, 24 h, PK04 Diversity Set (AID 1180);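 further: RPMI8826 multiple myeloma cell line at 5000 cells per well; test concentration not given here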
- Condition Set: higher = more signal
Label scheme for z-score: lower than 0.7 is condition not met, 0.7 and above is condition met.

Request: Threshold query (z-score >= 0.7) on CCN1C(=O)[C@H]2[C@H]3[C@H](O)[C@H](O)CC(=NOC[C@@H](C)[C@H](OCc4ccccc4)C(C)C)[C@@H]3CC[C@H]2C1=O
Result: condition not met

Request: Threshold query (z-score >= 0.7) on O=C1O[C@@H](c2ccccc2)[C@@H](c2ccccc2)N2[C@@H](c3ccc(OCCO)cc3)[C@]3(C(=O)Nc4ccc(C#CCCO)cc43)[C@@H](C(=O)N3CCCCCCC3)[C@H]12
Result: condition met

Request: Threshold query (z-score >= 0.7) on COCCNC(=O)OCC1CCCC2(CC(OC(=O)NCCc3ccc(F)cc3)CC(CCC(=O)N[C@@H](C)C(=O)OC)O2)O1 (some centres undefined)
Result: condition met

Request: Threshold query (z-score >= 0.7) on CCc1cc2c(nc1CC)CCN(CCC(C)=NOC[C@@H](O)COCc1ccco1)C2
Result: condition not met

Request: Threshold query (z-score >= 0.7) on CC(CCN1CCCCc2nc(C)c(C)cc21)=NOC(C)CN1CCCc2nc(C)c(C)cc21 (centres undefined)
Result: condition not met

Request: Threshold query (z-score >= 0.7) on CCOC(=O)[C@H](Cc1ccccc1)NC(=O)CCC1CC(OC(=O)NCc2ccc3c(c2)OCO3)CC2(CCCC(COC(=O)NCc3ccccc3)O2)O1 (some centres undefined)
Result: condition not met

Request: Threshold query (z-score >= 0.7) on CO[C@@H]1COC(=O)[C@H](C)NC(=O)[C@@H](C)COC(=O)CCC[C@H]1C
Result: condition not met

Request: Threshold query (z-score >= 0.7) on COc1ccc(O[C@H]2C=C[C@@H](c3ccccc3)O[C@@H]2COC(=O)N2CCCCC2)cc1
Result: condition met

Request: Threshold query (z-score >= 0.7) on COC(=O)[C@@H]1CCCN1C(=O)[C@@H](C)CO
Result: condition not met
